Where these numbers come from: patent US7875647B2

Target: Cannabinoid-1 receptor (CB1R) (Rattus norvegicus, UniProt P20272)
Construct: The tissue obtained from the brain of SD rats was homogenized; from tissue; host or cells: brain of SD rats (membrane pellet of the homogenate)
Sequence (P20272 whole entry): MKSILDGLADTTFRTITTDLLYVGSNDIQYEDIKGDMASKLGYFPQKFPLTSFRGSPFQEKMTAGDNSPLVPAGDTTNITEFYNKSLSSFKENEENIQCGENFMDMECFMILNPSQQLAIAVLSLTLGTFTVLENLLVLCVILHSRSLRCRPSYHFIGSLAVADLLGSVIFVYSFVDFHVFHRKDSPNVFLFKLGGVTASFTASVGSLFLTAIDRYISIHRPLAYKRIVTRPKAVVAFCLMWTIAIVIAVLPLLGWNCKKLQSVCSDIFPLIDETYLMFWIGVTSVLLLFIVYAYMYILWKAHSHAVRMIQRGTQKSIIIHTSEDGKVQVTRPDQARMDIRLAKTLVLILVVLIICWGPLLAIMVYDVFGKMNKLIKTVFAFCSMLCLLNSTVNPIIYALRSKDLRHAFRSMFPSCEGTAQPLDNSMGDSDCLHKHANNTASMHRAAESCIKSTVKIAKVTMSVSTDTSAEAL
Test: Cannabinoid-1 receptor (CB1R) binding affinity assay ([3H]CP-55940, rat CB-1 receptor binding protocol)
Details: brain tissue of SD rats, [3H]CP-55940, 30° C. 60 min; read-out: IC50
Endpoint Label: IC50
Form field: result (number plus unit)

Example compounds with recorded IC50:
INSERT INTO results (compound, value_observed) VALUES
  ('COC(=O)NC(C)c1c(-c2nnc(C(C)(C)C)o2)nn(-c2ccc(Cl)cc2Cl)c1-c1ccc(Br)cc1 (stereo not shown) [Example 230]', '9.01 nM'),
  ('CCc1c(-c2nnc(C3(c4ccc(C)cc4)CC3)s2)nn(-c2ccc(Cl)cc2Cl)c1-c1ccc(Cl)cc1 [Example 480]', '5.08 nM'),
  ('Cc1c(-c2nnc(C3CCC3)s2)nn(-c2ccccc2Cl)c1-c1ccc(Br)cc1 [Example 427]', '29.6 nM');

Lookup: Would you kindly share the measured IC50 for Clc1ccc(-c2c(Cn3cncn3)c(-c3nnc(C4(c5ccc(Cl)cc5)CC4)s3)nn2-c2ccc(Cl)cc2Cl)cc1 [Example 506] ?
Found: 2.49 nM
